This collection of values is drawn from paper PMC3398342.

- assaySystem: glycogen phosphorylase (GPPase) (Oryctolagus cuniculus, UniProt P00489)
- Sequence (P00489 2-843): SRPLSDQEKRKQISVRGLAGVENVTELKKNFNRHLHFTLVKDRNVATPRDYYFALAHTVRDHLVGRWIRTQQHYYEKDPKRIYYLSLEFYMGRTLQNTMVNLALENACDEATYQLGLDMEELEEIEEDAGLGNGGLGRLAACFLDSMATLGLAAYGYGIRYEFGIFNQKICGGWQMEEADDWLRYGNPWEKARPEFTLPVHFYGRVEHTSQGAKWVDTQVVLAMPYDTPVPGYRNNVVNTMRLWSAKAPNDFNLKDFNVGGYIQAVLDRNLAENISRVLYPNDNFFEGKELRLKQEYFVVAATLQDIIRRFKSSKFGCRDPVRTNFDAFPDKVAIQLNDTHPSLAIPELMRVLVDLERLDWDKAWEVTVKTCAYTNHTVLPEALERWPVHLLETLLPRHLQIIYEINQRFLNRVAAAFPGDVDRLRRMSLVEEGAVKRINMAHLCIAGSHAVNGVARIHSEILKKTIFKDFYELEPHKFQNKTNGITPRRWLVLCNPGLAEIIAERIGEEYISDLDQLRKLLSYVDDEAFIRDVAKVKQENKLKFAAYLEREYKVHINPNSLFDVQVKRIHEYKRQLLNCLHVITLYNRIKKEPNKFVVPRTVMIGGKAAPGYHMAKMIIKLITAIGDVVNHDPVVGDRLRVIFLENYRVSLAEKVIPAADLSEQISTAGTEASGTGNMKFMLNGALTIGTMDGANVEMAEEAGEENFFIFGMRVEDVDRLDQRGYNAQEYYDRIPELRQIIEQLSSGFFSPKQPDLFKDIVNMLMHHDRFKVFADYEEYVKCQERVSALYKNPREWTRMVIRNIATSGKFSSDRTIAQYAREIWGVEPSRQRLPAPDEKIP
- methodNotes: phosphoglucomutase/G6PDH-coupled spectrophotometric activity assay with glycogen; activation
readoutKind: pEC50
Numbers only, as −log10 of the molar value.

Entry Nc1ncnc2c1ncn2[C@@H]1O[C@H](COP(=O)(O)O)[C@@H](O)[C@H]1O [AMP] — recorded pEC50 = 4.73
